Experiment: Dynamic solubility in water and biological vehicles at 37° C.
Type: physicochemical
Settings: water, thermodynamic from solid, 100 rpm, 1/4/24 h, 30 mg in 3 mL, HPLC, read-out: Solubility in water
ASSAY_ENDPOINT: solubility

[[record]]
smiles_data = "COc1ccc(CCC(=O)N(CCCN)CCCNCCCN(CCCN)C(=O)CCc2ccc(OC)c(OC)c2)cc1OC"
assay_endpoint = "solubility"
result = "> 9000 µg/mL"


====

Test: Dynamic solubility in water and biological vehicles at 37° C.
Type: physicochemical
Settings: simulated feeding intestinal juice (FeSSIF), fessif, thermodynamic from solid, simulated feeding intestinal juice, 100 rpm, 1/4/24 h, HPLC, read-out: Solubility in FeSSIF
ASSAY_ENDPOINT: solubility

[[record]]
smiles_data = "COc1ccc(CCC(=O)N(CCCN)CCCNCCCN(CCCN)C(=O)CCc2ccc(OC)c(OC)c2)cc1OC"
result = "> 9000 µg/mL"

